Molecular target: KMO mouse enzyme (Mus musculus)
Construct: KMO enzyme prepared at Evotec from mouse liver (4-6 weeks old) via mitochondria isolation; from tissue; host or cells: mouse liver (4-6 weeks old), mitochondria isolation, prepared at Evotec
Sequence (Q91WN4 whole entry): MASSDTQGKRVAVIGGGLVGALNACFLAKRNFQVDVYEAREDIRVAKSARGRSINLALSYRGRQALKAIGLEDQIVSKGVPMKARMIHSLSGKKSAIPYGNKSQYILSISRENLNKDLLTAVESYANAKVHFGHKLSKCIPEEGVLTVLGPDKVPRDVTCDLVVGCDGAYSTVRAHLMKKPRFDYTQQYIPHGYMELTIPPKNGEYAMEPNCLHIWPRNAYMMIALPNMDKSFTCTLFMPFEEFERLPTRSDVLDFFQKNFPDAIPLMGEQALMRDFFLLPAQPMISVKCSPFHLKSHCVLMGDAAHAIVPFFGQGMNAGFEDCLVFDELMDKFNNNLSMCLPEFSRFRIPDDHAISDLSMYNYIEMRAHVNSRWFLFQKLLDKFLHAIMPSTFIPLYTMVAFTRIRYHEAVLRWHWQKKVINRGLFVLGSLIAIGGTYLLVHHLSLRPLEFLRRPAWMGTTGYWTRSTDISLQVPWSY
Assay: KMO mouse enzyme assay: L-Kynurenine hydroxylation to 3-Hydroxy-Kynurenine monitored by LC/MS (MRM)
Format: biochemical
Conditions: compound at 10 μM; KMO enzyme from mouse liver mitochondria; read-out: INH.Mouse @ 10 μM
endpoint label: inhibition at 10 µM (%)
Give a bare numeral; the unit % is implied.

Exam item: Recorded inhibition at 10 µM for `O=C(NCc1ccncc1)c1cc(-c2cccc(Cl)c2)ncn1` , please?
Marked response: 100

Exam item: And then `O=C(c1cc(-c2cccc(Cl)c2)ncn1)N1CCc2cc(F)ccc21` , what is it?
Marked response: 100

Exam item: And then `COc1ccc(N(C)C(=O)c2cc(-c3cccc(Cl)c3)ncn2)cc1` , what is it?
Marked response: 100

Exam item: And then `O=C(Nc1ccccc1)c1cc(-c2cccc(Cl)c2)ccn1` , what is it?
Marked response: 68.4

Exam item: And then `COC(=O)c1cc(-c2cccc(C)c2)ncn1` , what is it?
Marked response: 96.3

Exam item: And then `O=C(Nc1cccnc1)c1cc(-c2ccc(C(F)(F)F)c(Cl)c2)ncn1` , what is it?
Marked response: 48.3

Exam item: And then `COc1ccccc1NC(=O)c1cc(-c2cccc(Cl)c2)ncn1` , what is it?
Marked response: 100
